- Target of assay: human MSR1 endogenously expressed on PMA-differentiated THP-1 cells (human) (UniProt P21757)
- Sequence (P21757 whole entry): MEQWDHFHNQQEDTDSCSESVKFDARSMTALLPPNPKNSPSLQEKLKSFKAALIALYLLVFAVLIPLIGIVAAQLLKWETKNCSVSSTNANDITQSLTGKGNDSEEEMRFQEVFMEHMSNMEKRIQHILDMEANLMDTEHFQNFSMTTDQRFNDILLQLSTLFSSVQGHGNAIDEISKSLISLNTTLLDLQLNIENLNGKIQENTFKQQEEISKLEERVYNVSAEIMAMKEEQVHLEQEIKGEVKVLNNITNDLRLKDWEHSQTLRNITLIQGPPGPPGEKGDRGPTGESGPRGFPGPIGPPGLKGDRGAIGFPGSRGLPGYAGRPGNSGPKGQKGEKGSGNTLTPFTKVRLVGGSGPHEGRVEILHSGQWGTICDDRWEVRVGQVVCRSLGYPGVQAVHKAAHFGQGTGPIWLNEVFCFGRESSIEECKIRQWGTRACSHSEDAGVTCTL
- Method summary: imaging of PMA-differentiated THP-1 cells, 10 ug/mL antibody, Alexa 488 secondary
Measure name: Total Binding at 37° C. (RFU)
// return numeric value only (unit: RFU, not printed)

Answered cases to consult:
Task: Data request, read-out Total Binding at 37° C., for H1H21234N-N297Q (antibody, human IgG1, V domains shown) VH: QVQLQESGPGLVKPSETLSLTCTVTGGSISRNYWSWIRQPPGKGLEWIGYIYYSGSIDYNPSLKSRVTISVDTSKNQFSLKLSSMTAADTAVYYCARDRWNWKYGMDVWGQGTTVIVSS VL: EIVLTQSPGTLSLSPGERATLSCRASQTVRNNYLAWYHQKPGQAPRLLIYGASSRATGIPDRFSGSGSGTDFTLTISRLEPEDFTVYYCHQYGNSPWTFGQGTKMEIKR
Result: 5.45e+06

Task: Also H1H27747P-N297Q (antibody, human IgG1, V domains shown) VH: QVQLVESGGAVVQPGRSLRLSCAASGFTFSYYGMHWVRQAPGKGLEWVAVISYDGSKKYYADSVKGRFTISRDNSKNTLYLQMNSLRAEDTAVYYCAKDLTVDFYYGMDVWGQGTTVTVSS VL: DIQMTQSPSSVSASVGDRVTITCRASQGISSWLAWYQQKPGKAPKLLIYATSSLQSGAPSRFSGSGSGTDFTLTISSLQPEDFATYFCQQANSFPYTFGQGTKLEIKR ?
Result: 5.92e+06

Task: Also H1H27734P-N297Q (antibody, human IgG1, V domains shown) VH: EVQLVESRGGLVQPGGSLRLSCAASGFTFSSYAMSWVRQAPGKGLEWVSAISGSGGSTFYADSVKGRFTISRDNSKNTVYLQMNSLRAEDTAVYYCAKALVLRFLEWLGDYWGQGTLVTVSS VL: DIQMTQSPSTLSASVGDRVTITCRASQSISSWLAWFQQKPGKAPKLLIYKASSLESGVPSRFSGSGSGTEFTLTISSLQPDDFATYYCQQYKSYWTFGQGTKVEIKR ?
Result: 1.15e+06

Next:
Task: Data request, read-out Total Binding at 37° C., for H1H27739P-N297Q (antibody, human IgG1, V domains shown) VH: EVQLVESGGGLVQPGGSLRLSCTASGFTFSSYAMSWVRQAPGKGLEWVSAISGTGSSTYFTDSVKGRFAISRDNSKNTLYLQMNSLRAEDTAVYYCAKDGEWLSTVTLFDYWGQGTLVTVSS VL: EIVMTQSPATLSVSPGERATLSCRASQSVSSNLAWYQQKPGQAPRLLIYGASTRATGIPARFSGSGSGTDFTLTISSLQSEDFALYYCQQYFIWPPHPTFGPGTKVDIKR
Result: 5.61e+06

All values here come from patent US20200368361A1.
